Items are presented alongside their recorded remaining at 10 min, 1 µM.
Assay: in vitro
Settings: mouse, microsomes, pH 7.4, % Remaining, T=10 min, n=1, mouse liver microsomes, 1 µM, 10 min, n=1
Please reply with the bare figure in % and do not write the unit itself.

Reported remaining at 10 min, 1 µM of O=C1NC(=O)C(=C/C=C/c2ccccc2)C(=O)N1 : 0

Entry COc1cc(C=C2C(=O)NC(=O)NC2=O)ccc1O ; remaining at 10 min, 1 µM = 17.1

Quick note, remaining at 10 min, 1 µM for O=C1NC(=O)C(=Cc2ccc(-c3ccccc3F)[nH]2)C(=O)N1 landed at 1.7

Note: attention shifts to another entry.
get_value(item= O=C1NC(=O)C(=Cc2ccc(N3CCOCC3)cc2[N+](=O)[O-])C(=O)N1 , readout=remaining at 10 min, 1 µM) returns 96

* * *

Assay: Parallel artificial membrane permeability assay (PAMPA)
Settings: PAMPA, pH 7.4, % Recovery n=1, replicate n=1; 10µM, PBS pH 7.4/7.4, 6h at room temperature
quantity-name: recovery at 6 h, 10 µM (%)
Express your answer in %, writing the number without its unit.

Examples with their reported recovery at 6 h, 10 µM follow.
Lab book: recovery at 6 h, 10 µM of CC(C)NCC(O)COc1cccc2ccccc12 (stereo not shown) [Propranolol] noted as 85.7

recovery at 6 h, 10 µM measured on COc1cc(C=C2C(=O)NC(=O)NC2=O)ccc1O [2c] = 86.6

Form: compound = NS(=O)(=O)c1cc(C(=O)O)c(NCc2ccco2)cc1Cl [Furosemide] ; recovery at 6 h, 10 µM = 89.7

***
Looking up O=C1NC(=O)C(=Cc2ccc(-c3ccccc3F)[nH]2)C(=O)N1 [2h] , I found its recovery at 6 h, 10 µM recorded as 38

So for O=C1NC(=O)C(=C/C=C/c2ccccc2)C(=O)N1 [2i] , the logged recovery at 6 h, 10 µM turned out to be 14.3

Value of recovery at 6 h, 10 µM reported for the compound O=C1NC(=O)C(=Cc2ccc(N3CCOCC3)cc2[N+](=O)[O-])C(=O)N1 [2e] is 95.1

So for NC(=O)N1c2ccccc2C=Cc2ccccc21 [Carbamazepine] , the logged recovery at 6 h, 10 µM turned out to be 100

* * *

Conditions: mouse liver microsomes, 20 min, replicate 2 (right block), raw LC-MS area
quantity-name: Raw data: analyte peak area, T=20
Just the number, please, no unit attached.

Below, each entry is followed by its recorded Raw data: analyte peak area, T=20 result.
For reference, reported Raw data: analyte peak area, T=20 for CC(C)NCC(O)COc1cccc2ccccc12 (stereo not shown) [Propranolol] stands at 29449

The compound listed as O=C(O)Cc1ccccc1Nc1c(Cl)cccc1Cl [Diclofenac] has a reported Raw data: analyte peak area, T=20 of 13336

# Raw data: analyte peak area, T=20 of O=C1NC(=O)C(=C/C=C/c2ccccc2)C(=O)N1 [2i] = 0

For the next question, use this compound.
Given item O=C1NC(=O)C(=Cc2ccc(N3CCOCC3)cc2[N+](=O)[O-])C(=O)N1 [2e] , the value recorded as its Raw data: analyte peak area, T=20 is 21071

* * *

Test: Cell viability / cytotoxicity assay (PrestoBlue, 72 h)
Format: cell-based
Details: human; THP-1 cell line, 72 h, max 200 μM; read-out: CC50
Experimental: THP-1 cells (American Type Cell Collection, #TIB-202) were acquired in 2019 and stored frozen in liquid nitrogen. […] After adding the reagent, the cells were incubated for 2 h at 37 °C in a 5% CO2 atmosphere, and fluorescence readings were performed using the SpectraMax M3 reader (excitation at 560 nm and emission at 590 nm).
CC50 at 72 h reference

// solved cases for CC50 at 72 h follow
Just so you know, measured CC50 at 72 h for O=C1NC(=O)C(Cc2cccc(O)c2)C(=O)N1 came out at > 200 µM

Item: O=C1NC(=O)C(=C/C=C/c2ccccc2)C(=O)N1 | CC50 at 72 h: 193 µM

Reported CC50 at 72 h for O=C1NC(=O)C(=Cc2ccc(O)c([N+](=O)[O-])c2)C(=O)N1 was > 200 µM

The compound COc1cc(CC2C(=O)NC(=O)NC2=O)ccc1O showed CC50 at 72 h equal to > 200 µM

Per the records, this compound ( O=C1NC(=O)C(Cc2ccccc2)C(=O)N1 ) has CC50 at 72 h equal to > 200 µM

Sample O=C1NC(=O)C(=Cc2ccc(N3CCOCC3)cc2[N+](=O)[O-])C(=O)N1 ; CC50 at 72 h observed: > 200 µM

// recorded CC50 at 72 h for O=C1NC(=O)C(=Cc2ccc(C(=O)O)cc2)C(=O)N1 : > 200 µM

For reference, reported CC50 at 72 h for O=C1NC(=O)C(Cc2ccc(N3CCOCC3)cc2[N+](=O)[O-])C(=O)N1 stands at > 200 µM

Others:
CC50 at 72 h for O=C1NC(=O)C(CCCc2ccccc2)C(=O)N1 is > 200 µM

// CC50 at 72 h value for O=C1NC(=O)C(Cc2ccc(-c3ccccc3)cc2)C(=O)N1 : > 200 µM

So, O=C1NC(=O)C(Cc2ccc(-c3ccccc3F)[nH]2)C(=O)N1 ? Its CC50 at 72 h was > 200 µM

Lookup result for O=C1NC(=O)C(CC=Cc2ccccc2)C(=O)N1 ; measured CC50 at 72 h: 193 µM

* * *

Each item that follows carries a reported activity at 100 µM.
Biological target: HsDHODH (Homo sapiens, UniProt Q02127)
Construct: made in house
Sequence (Q02127 whole entry): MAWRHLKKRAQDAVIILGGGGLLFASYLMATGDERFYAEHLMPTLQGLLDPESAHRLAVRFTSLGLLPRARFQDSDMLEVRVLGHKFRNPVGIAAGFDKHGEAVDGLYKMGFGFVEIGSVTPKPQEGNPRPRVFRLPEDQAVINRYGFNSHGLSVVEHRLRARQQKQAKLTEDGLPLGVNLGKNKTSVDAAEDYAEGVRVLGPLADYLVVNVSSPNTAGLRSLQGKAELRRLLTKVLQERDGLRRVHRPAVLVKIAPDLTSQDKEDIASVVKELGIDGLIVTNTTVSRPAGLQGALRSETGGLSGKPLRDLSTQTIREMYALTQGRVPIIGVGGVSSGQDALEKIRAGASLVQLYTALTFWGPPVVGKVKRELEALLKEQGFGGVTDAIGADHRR
Assay: Selectivity assay: HsDHODH single-dose inhibition (DCIP reduction)
Type: biochemical
Conditions: read-out: Single dose (0h) % activity
Write it as a number; the unit % goes unstated.

Please review the entries below; each comes with its answer.
Item COc1cc(CC2C(=O)NC(=O)NC2=O)ccc1O ; assay system HsDHODH (Homo sapiens, UniProt Q02127); activity at 100 µM reported as 87

activity at 100 µM for HsDHODH (Homo sapiens, UniProt Q02127) with input O=C1NC(=O)C(=Cc2cccc(O)c2)C(=O)N1 equals 101

The molecule O=C1NC(=O)C(=Cc2ccc(O)c([N+](=O)[O-])c2)C(=O)N1 , tested on HsDHODH (Homo sapiens, UniProt Q02127), showed activity at 100 µM of 90

Form field, activity at 100 µM with HsDHODH (Homo sapiens, UniProt Q02127), item O=C1NC(=O)C(Cc2ccc(-c3ccccc3)cc2)C(=O)N1 : 93

Reported activity at 100 µM (HsDHODH (Homo sapiens, UniProt Q02127)) for entry O=C1NC(=O)C(=C/C=C/c2ccccc2)C(=O)N1 is 93

Entry O=C1NC(=O)C(CC=Cc2ccccc2)C(=O)N1 , tested on HsDHODH (Homo sapiens, UniProt Q02127), has a reported activity at 100 µM of 102

***
Measured activity at 100 µM for this entry O=C1NC(=O)C(=Cc2ccc(-c3ccccc3)cc2)C(=O)N1 on HsDHODH (Homo sapiens, UniProt Q02127): 103

* * *

Test: Parallel artificial membrane permeability assay (PAMPA)
Conditions: replicate n=2; 10µM (5% DMSO), PBS pH 7.4/7.4, 6h at room temperature, LC-MS/MS
Measured Pe (nm/sec) n=2 values are reported for all entries that follow.
A number alone suffices; assume nm/s.

For orientation, consider the following solved cases.
Documented Pe (nm/sec) n=2 of NC(=O)N1c2ccccc2C=Cc2ccccc21 [Carbamazepine] : 76.4

// NS(=O)(=O)c1cc(C(=O)O)c(NCc2ccco2)cc1Cl [Furosemide] : Pe (nm/sec) n=2 value = 0.000461

Item: CC(C)NCC(O)COc1cccc2ccccc12 (stereo not shown) [Propranolol] | Pe (nm/sec) n=2: 69.4

// next item, Pe (nm/sec) n=2 requested
So for O=C1NC(=O)C(=Cc2ccc(N3CCOCC3)cc2[N+](=O)[O-])C(=O)N1 [2e] , the logged Pe (nm/sec) n=2 turned out to be 0.00426

* * *

Assay: in vitro
Settings: male, CD1, mouse, liver microsomes, pH 7.4, % Remaining, T=5 min, n=1, mouse liver microsomes, 1 µM, 5 min, n=1
quantity-name: remaining at 5 min, 1 μM (%)
Just the number please, in %, no unit attached.

Looking up O=C(O)Cc1ccccc1Nc1c(Cl)cccc1Cl , I found its remaining at 5 min, 1 μM recorded as 94

* * *

Target: LbDHODH (Leishmania braziliensis, UniProt E9AI53)
Sequence (E9AI53 entry or part of it): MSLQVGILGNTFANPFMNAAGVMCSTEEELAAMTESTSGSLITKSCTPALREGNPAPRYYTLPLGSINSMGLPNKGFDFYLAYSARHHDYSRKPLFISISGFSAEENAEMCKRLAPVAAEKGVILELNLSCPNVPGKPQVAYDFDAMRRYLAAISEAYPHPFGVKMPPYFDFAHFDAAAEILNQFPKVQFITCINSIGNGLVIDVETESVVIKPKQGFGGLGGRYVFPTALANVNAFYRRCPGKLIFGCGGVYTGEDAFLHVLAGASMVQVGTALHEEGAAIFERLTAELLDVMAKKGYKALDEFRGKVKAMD
Experiment: biochemical
Details: 4 h, pH 8.15, read-out: LbDHODH Activity±SD (%)
quantity-name: activity at 100 µM (%)
A number alone suffices; assume %.

Worked set:
Value of activity at 100 µM reported for the compound O=C1NC(=O)C(=Cc2ccc(-c3ccccc3)cc2)C(=O)N1 is 3.8

For this compound ( O=C1NC(=O)C(=Cc2ccc(N3CCOCC3)cc2[N+](=O)[O-])C(=O)N1 ), measured activity at 100 µM is 13

activity at 100 µM measured on O=C1NC(=O)C(=Cc2ccc(C(=O)O)cc2)C(=O)N1 = 15

For reference, reported activity at 100 µM for COc1cc(C=C2C(=O)NC(=O)NC2=O)ccc1O stands at 52

Further cases:
get_value(item= O=C1NC(=O)C(=Cc2ccc(O)c([N+](=O)[O-])c2)C(=O)N1 , readout=activity at 100 µM) returns 28

response.value for O=C1NC(=O)C(=Cc2ccccc2)C(=O)N1 (field: activity at 100 µM) = 21

Data point: O=C1NC(=O)C(=Cc2cccc(O)c2)C(=O)N1 ; activity at 100 µM = 12.1
